Numbers sourced from patent US4801593A.

Tested on: rhinovirus serotype 1B
Experiment Notes: plaque reduction (PR) test
Assay type: cell-based
Condition Description: Enterovirus; Activity versus rhinovirus serotype 1B; monolayer cell culture, compound in nutrient agarose overlay; read-out: PR(ED50)
pEC50: −log10 of the molar value.
We use 6 as the dividing line for pEC50: on or above the line is condition met, below is condition not met.

Please review the entries below; each comes with its answer.
[[record]]
molecule = "c1ccc(C2CCc3ccccc3S2)cc1 (stereo not drawn) [Example 1, thioflavan]"
class_label = "condition met"

[[record]]
molecule = "Oc1ccc(N2CCc3ccccc3C2)cc1 [Example 15]"
class_label = "condition not met"

[[record]]
molecule = "COc1ccc(N2CCc3ccccc3C2)cc1 [Example 12]"
class_label = "condition not met"

[[record]]
molecule = "Clc1ccc2c(c1)CN(c1ccccc1)CC2 [Example 21]"
class_label = "condition met"

[[record]]
molecule = "Fc1ccc(N2CCc3cc(Cl)ccc3C2)cc1 [Example 20]"
class_label = "condition met"

[[record]]
molecule = "Clc1ccc(C2CCc3cc(Cl)ccc3S2)cc1 (stereo not drawn) [Example 3, 4',6-dichlorothioflavan]"
class_label = "condition met"


Challenge: Assess whether reported pEC50 for Cc1cccc(C)c1N1CCc2ccccc2C1 [Example 13] sits at 6 or higher.
Response given: condition met
